- Tested on: Enterococcus sp.
- experiment summary: In vitro antibacterial evaluation: minimum inhibitory concentration (MIC), broth dilution method
- Type: cell-based
- stated conditions: Enterococcus faecalis (GC 3059); 18 hours at 35° C.
Overview of reported MIC Enterococcus faecalis (GC 3059) across a group of compounds:
State the answer as a number, implicitly in µg/mL.

compound	measure name	measured
CC(c1ccccc1)C1NC(=O)CNC(=O)C(CO)NC(=O)C(C(O)C2CNC(=N)N2C2OC(CO)C(O)C(O)C2O)NC(=O)C(C(O)C2CNC(=N)N2)NC(=O)C(Cc2ccc(OC3OC(CO)C(OC4OC5COC6(CCCCC6)OC5C(O)C4O)C(O)C3O)cc2)NC1=O (stereo not shown) [Example 203]	MIC Enterococcus faecalis (GC 3059)	8
CC(c1ccccc1)C1NC(=O)CNC(=O)C(CO)NC(=O)C(CC2CNC(=N)N2C2OC(CO)C(O)C(O)C2O)NC(=O)C(CC2CNC(=N)N2)NC(=O)C(Cc2ccc(OC3OC(CO)C(OC4OC(COCc5ccc(OCc6ccccc6)cc5)C(O)C(O)C4O)C(O)C3O)cc2)NC1=O (stereo not shown) [Example 246]	MIC Enterococcus faecalis (GC 3059)	32
CC(C)=CCN1CC(C(O)C2NC(=O)C(C(O)C3CNC(=N)N3)NC(=O)C(Cc3ccc(OC4OC(CO)C(OC5OC6COC7(OC6C(O)C5O)C5CC6CC(C5)CC7C6)C(O)C4O)cc3)NC(=O)C(C(C)c3ccccc3)NC(=O)CNC(=O)C(CO)NC2=O)N(C2OC(CO)C(O)C(O)C2O)C1=N (stereo not shown) [Example 225]	MIC Enterococcus faecalis (GC 3059)	16
CCCCN1CC(C(O)C2NC(=O)C(C(O)C3CNC(=N)N3)NC(=O)C(Cc3ccc(OC4OC(CO)C(OC5OC6COC7(OC6C(O)C5O)C5CC6CC(C5)CC7C6)C(O)C4O)cc3)NC(=O)C(C(C)c3ccccc3)NC(=O)CNC(=O)C(CO)NC2=O)N(C2OC(CO)C(O)C(O)C2O)C1=N (stereo not shown) [Example 224]	MIC Enterococcus faecalis (GC 3059)	4
N=C1NCC(C(O)C2NC(=O)C(Cc3ccc(OC4OC(CO)C(OC5OC6COC(CCc7ccccc7)OC6C(O)C5O)C(O)C4O)cc3)NC(=O)C(CC3CCCCC3)NC(=O)CNC(=O)C(CO)NC(=O)C(C(O)C3CNC(=N)N3C3OC(CO)C(O)C(O)C3O)NC2=O)N1 (stereo not shown) [Example 198]	MIC Enterococcus faecalis (GC 3059)	1

Lookup result for COc1ccc2cc(C3OCC4OC(OC5C(CO)OC(Oc6ccc(CC7NC(=O)C(C(C)c8ccccc8)NC(=O)CNC(=O)C(CO)NC(=O)C(CC8CNC(=N)N8C8OC(CO)C(O)C(O)C8O)NC(=O)C(CC8CNC(=N)N8)NC7=O)cc6)C(O)C5O)C(O)C(O)C4O3)ccc2c1 (stereo not shown) [Example 190] ; measured MIC Enterococcus faecalis (GC 3059): 32

Note to self: MIC Enterococcus faecalis (GC 3059) recorded for COc1ccc(COCC2OC(OC3C(CO)OC(Oc4ccc(CC5NC(=O)C(C(C)c6ccccc6)NC(=O)CNC(=O)C(CO)NC(=O)C(C(O)C6CNC(=N)N6C6OC(CO)C(O)C(O)C6O)NC(=O)C(C(O)C6CNC(=N)N6)NC5=O)cc4)C(O)C3O)C(O)C(O)C2O)cc1F (stereo not shown) [Example 237] was 32

The reported MIC Enterococcus faecalis (GC 3059) of the compound CC(c1ccccc1)C1NC(=O)CNC(=O)C(CO)NC(=O)C(C(O)C2CNC(=N)N2C2OC(CO)C(O)C(O)C2O)NC(=O)C(C(O)C2CNC(=N)N2)NC(=O)C(Cc2ccc(OC3OC(CO)C(OC4OC5COC6(CC7CCC6(C)C7(C)C)OC5C(O)C4O)C(O)C3O)cc2)NC1=O (stereo not shown) [Example 214] was 2

Measured MIC Enterococcus faecalis (GC 3059) of CC(c1ccccc1)C1NC(=O)CNC(=O)C(CO)NC(=O)C(C(O)C2CN(c3ncccn3)C(=N)N2C2OC(CO)C(O)C(O)C2O)NC(=O)C(C(O)C2CNC(=Nc3ncccn3)N2)NC(=O)C(Cc2ccc(OC3OC(CO)C(OC4OC5COC6(OC5C(O)C4O)C4CC5CC(C4)CC6C5)C(O)C3O)cc2)NC1=O (stereo not shown) [Example 228] : 32

get_value(item= CC(c1ccccc1)C1NC(=O)CNC(=O)C(CO)NC(=O)C(C(O)C2CNC(=N)N2C2OC(CO)C(O)C(O)C2O)NC(=O)C(C(O)C2CNC(=N)N2)NC(=O)C(Cc2ccc(OC3OC(CO)C(OC4OC(COCc5ccc(Oc6ccccc6)cc5)C(O)C(O)C4O)C(O)C3O)cc2)NC1=O (stereo not shown) [Example 236] , readout=MIC Enterococcus faecalis (GC 3059)) returns 2
